Tested on: 616215-338-R-J1-PDC complex spheroid growth, % test/control
METHOD: Anticancer human tumor 616215-338-R-J1-PDC patient-derived colon adenocarcinoma cell line growth inhibition [Asc]
MEASUREMENT_SETUP: second compound 0.0949 µM; first compound 3.16 µM; stronger effect = lower value
compounds and their reported viability, T/C
Entry rule: numbers only, all in %.

The examples below pair each entry with its known result.
[[record]]
compound = "O=C(c1cc(Cc2n[nH]c(=O)c3ccccc23)ccc1F)N1CCN(C(=O)C2CC2)CC1 + CCN1C(C(=O)NC23CCC(C(=O)O)(CC2)CC3)C(c2cccc(Cl)c2F)C2(C(=O)Nc3cc(Cl)ccc32)C12CCCCC2"
target_or_test_system = "616215-338-R-J1-PDC complex spheroid growth, % test/control"
readout = "viability, T/C"
quantitative_result = 81.2

[[record]]
compound = "C=C(F)C(=O)N1CCN(c2nc(OCC3CCCN3C)nc3c2CCN(c2cccc4cccc(Cl)c24)C3)CC1CC#N (centres undefined) + CCN1C(C(=O)NC23CCC(C(=O)O)(CC2)CC3)C(c2cccc(Cl)c2F)C2(C(=O)Nc3cc(Cl)ccc32)C12CCCCC2"
target_or_test_system = "616215-338-R-J1-PDC complex spheroid growth, % test/control"
readout = "viability, T/C"
quantitative_result = 82

[[record]]
compound = "C#Cc1c(F)ccc2cc(O)cc(-c3ncc4c(N5CC6CCC(C5)N6)nc(OCC56CCCN5CC(F)C6)nc4c3F)c12 (centres undefined) + CCN1C(C(=O)NC23CCC(C(=O)O)(CC2)CC3)C(c2cccc(Cl)c2F)C2(C(=O)Nc3cc(Cl)ccc32)C12CCCCC2"
target_or_test_system = "616215-338-R-J1-PDC complex spheroid growth, % test/control"
readout = "viability, T/C"
quantitative_result = 80.3


Next item in the queue.
// viability, T/C value for C=CC(=O)N1CCN(c2nc(=O)n(-c3c(C)ccnc3C(C)C)c3nc(-c4c(O)cccc4F)c(F)cc23)C(C)C1 (centres undefined) + CCN1C(C(=O)NC23CCC(C(=O)O)(CC2)CC3)C(c2cccc(Cl)c2F)C2(C(=O)Nc3cc(Cl)ccc32)C12CCCCC2 : 92.9

---

Test system: 616215-338-R-J1-PDC complex spheroid growth, % test/control
METHOD: Anticancer human tumor 616215-338-R-J1-PDC cell line growth inhibition [Asc];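 further: spheroids exposed to agents for seven days before readout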
MEASUREMENT_SETUP: curve of first compound; second compound 3.16 µM
compounds and their reported IC50

[[record]]
compound = "C#Cc1c(F)ccc2cc(O)cc(-c3ncc4c(N5CC6CCC(C5)N6)nc(OCC56CCCN5CC(F)C6)nc4c3F)c12 (stereo not drawn) + Cc1c(S(C)(=O)=O)c(-c2cc(F)cc(N3CCN(c4ccc(NS(=O)(=O)c5ccc(NC(CCN6CCC(C(=O)OCCCP(=O)(O)O)CC6)CSc6ccccc6)c(S(=O)(=O)C(F)(F)F)c5)cc4)CC3)c2)c(-c2ccc(Cl)cc2)n1C(C)C"
result = "< 31.6 nM"

[[record]]
compound = "O=C(c1cc(Cc2n[nH]c(=O)c3ccccc23)ccc1F)N1CCN(C(=O)C2CC2)CC1 + Cc1c(S(C)(=O)=O)c(-c2cc(F)cc(N3CCN(c4ccc(NS(=O)(=O)c5ccc(NC(CCN6CCC(C(=O)OCCCP(=O)(O)O)CC6)CSc6ccccc6)c(S(=O)(=O)C(F)(F)F)c5)cc4)CC3)c2)c(-c2ccc(Cl)cc2)n1C(C)C"
result = "< 31.6 nM"


Next item in the queue.
Value sought: IC50, system 616215-338-R-J1-PDC complex spheroid growth, % test/control, item Cc1nc(N2CCC3(CC2)COC(C)C3N)c(CO)nc1Sc1ccnc(N)c1Cl (stereo not drawn) + Cc1c(S(C)(=O)=O)c(-c2cc(F)cc(N3CCN(c4ccc(NS(=O)(=O)c5ccc(NC(CCN6CCC(C(=O)OCCCP(=O)(O)O)CC6)CSc6ccccc6)c(S(=O)(=O)C(F)(F)F)c5)cc4)CC3)c2)c(-c2ccc(Cl)cc2)n1C(C)C . Result: < 9.49 nM

---

Tested on: 616215-338-R-J1-PDC complex spheroid growth, % test/control
METHOD: Anticancer human tumor 616215-338-R-J1-PDC cell line growth inhibition [Asc];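 further: spheroids exposed to agents for seven days before readout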
MEASUREMENT_SETUP: curve of first compound; second compound 0.316 µM
READOUT: IC50

The examples below pair each entry with its known result.
[[record]]
compound = "NC1CCC(NC2CC2c2ccccc2)CC1 (stereo not drawn) + CNC(C)C(=O)NC1CN(S(=O)(=O)c2cccc(S(=O)(=O)N3CCC4CCC(C(=O)NC(c5ccccc5)c5ccccc5)N4C(=O)C(NC(=O)C(C)NC)C3)c2)CCC2CCC(C(=O)NC(c3ccccc3)c3ccccc3)N2C1=O"
readout = "IC50"
result = "> 0.1 µM"

[[record]]
compound = "CCN1C(C(=O)NC23CCC(C(=O)O)(CC2)CC3)C(c2cccc(Cl)c2F)C2(C(=O)Nc3cc(Cl)ccc32)C12CCCCC2 (stereo not drawn) + CNC(C)C(=O)NC1CN(S(=O)(=O)c2cccc(S(=O)(=O)N3CCC4CCC(C(=O)NC(c5ccccc5)c5ccccc5)N4C(=O)C(NC(=O)C(C)NC)C3)c2)CCC2CCC(C(=O)NC(c3ccccc3)c3ccccc3)N2C1=O"
readout = "IC50"
result = "0.0806 µM"

[[record]]
compound = "O=C(c1cc(Cc2n[nH]c(=O)c3ccccc23)ccc1F)N1CCN(C(=O)C2CC2)CC1 + Cc1c(S(C)(=O)=O)c(-c2cc(F)cc(N3CCN(c4ccc(NS(=O)(=O)c5ccc(NC(CCN6CCC(C(=O)OCCCP(=O)(O)O)CC6)CSc6ccccc6)c(S(=O)(=O)C(F)(F)F)c5)cc4)CC3)c2)c(-c2ccc(Cl)cc2)n1C(C)C"
readout = "IC50"
result = "6.75 µM"


Value sought: IC50, system 616215-338-R-J1-PDC complex spheroid growth, % test/control, item Cn1ncnc1[C@H]1c2n[nH]c(=O)c3cc(F)cc(c23)N[C@@H]1c1ccc(F)cc1 + CNC(C)C(=O)NC1CN(S(=O)(=O)c2cccc(S(=O)(=O)N3CCC4CCC(C(=O)NC(c5ccccc5)c5ccccc5)N4C(=O)C(NC(=O)C(C)NC)C3)c2)CCC2CCC(C(=O)NC(c3ccccc3)c3ccccc3)N2C1=O . Result: > 0.1 µM

Value sought: IC50, system 616215-338-R-J1-PDC complex spheroid growth, % test/control, item C#Cc1c(F)ccc2cc(O)cc(-c3ncc4c(N5CC6CCC(C5)N6)nc(OCC56CCCN5CC(F)C6)nc4c3F)c12 (stereo not drawn) + Cc1c(S(C)(=O)=O)c(-c2cc(F)cc(N3CCN(c4ccc(NS(=O)(=O)c5ccc(NC(CCN6CCC(C(=O)OCCCP(=O)(O)O)CC6)CSc6ccccc6)c(S(=O)(=O)C(F)(F)F)c5)cc4)CC3)c2)c(-c2ccc(Cl)cc2)n1C(C)C . Result: > 10 µM

Value sought: IC50, system 616215-338-R-J1-PDC complex spheroid growth, % test/control, item C=C(F)C(=O)N1CCN(c2nc(OCC3CCCN3C)nc3c2CCN(c2cccc4cccc(Cl)c24)C3)CC1CC#N (stereo not drawn) + Cc1c(S(C)(=O)=O)c(-c2cc(F)cc(N3CCN(c4ccc(NS(=O)(=O)c5ccc(NC(CCN6CCC(C(=O)OCCCP(=O)(O)O)CC6)CSc6ccccc6)c(S(=O)(=O)C(F)(F)F)c5)cc4)CC3)c2)c(-c2ccc(Cl)cc2)n1C(C)C . Result: 4.9 µM

Value sought: IC50, system 616215-338-R-J1-PDC complex spheroid growth, % test/control, item CCN1C(C(=O)NC23CCC(C(=O)O)(CC2)CC3)C(c2cccc(Cl)c2F)C2(C(=O)Nc3cc(Cl)ccc32)C12CCCCC2 (stereo not drawn) + Cc1c(S(C)(=O)=O)c(-c2cc(F)cc(N3CCN(c4ccc(NS(=O)(=O)c5ccc(NC(CCN6CCC(C(=O)OCCCP(=O)(O)O)CC6)CSc6ccccc6)c(S(=O)(=O)C(F)(F)F)c5)cc4)CC3)c2)c(-c2ccc(Cl)cc2)n1C(C)C . Result: 0.123 µM

Value sought: IC50, system 616215-338-R-J1-PDC complex spheroid growth, % test/control, item CNC(C)C(=O)NC1CN(S(=O)(=O)c2cccc(S(=O)(=O)N3CCC4CCC(C(=O)NC(c5ccccc5)c5ccccc5)N4C(=O)C(NC(=O)C(C)NC)C3)c2)CCC2CCC(C(=O)NC(c3ccccc3)c3ccccc3)N2C1=O (stereo not drawn) + Cc1c(S(C)(=O)=O)c(-c2cc(F)cc(N3CCN(c4ccc(NS(=O)(=O)c5ccc(NC(CCN6CCC(C(=O)OCCCP(=O)(O)O)CC6)CSc6ccccc6)c(S(=O)(=O)C(F)(F)F)c5)cc4)CC3)c2)c(-c2ccc(Cl)cc2)n1C(C)C . Result: > 1 µM

---

System: 616215-338-R-J1-PDC complex spheroid growth, % test/control
METHOD: Anticancer human tumor 616215-338-R-J1-PDC cell line growth inhibition [Asc];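 further: spheroids exposed to agents for seven days before readout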
MEASUREMENT_SETUP: curve of first compound; second compound 0.0316 µM
READOUT: pIC50
In textbook form, pIC50 equals minus log to base ten of the concentration in mol/L.

The examples below pair each entry with its known result.
[[record]]
compound = "COc1c(OCCCN2CCOCC2)ccc2c3n(c(=NC(=O)c4cnc(N)nc4)nc12)CCN3 + CNC(C)C(=O)NC1CN(S(=O)(=O)c2cccc(S(=O)(=O)N3CCC4CCC(C(=O)NC(c5ccccc5)c5ccccc5)N4C(=O)C(NC(=O)C(C)NC)C3)c2)CCC2CCC(C(=O)NC(c3ccccc3)c3ccccc3)N2C1=O"
quantitative_result = 7.33

[[record]]
compound = "C=C(F)C(=O)N1CCN(c2nc(OCC3CCCN3C)nc3c2CCN(c2cccc4cccc(Cl)c24)C3)CC1CC#N (configuration not stated) + CNC(C)C(=O)NC1CN(S(=O)(=O)c2cccc(S(=O)(=O)N3CCC4CCC(C(=O)NC(c5ccccc5)c5ccccc5)N4C(=O)C(NC(=O)C(C)NC)C3)c2)CCC2CCC(C(=O)NC(c3ccccc3)c3ccccc3)N2C1=O"
quantitative_result = 6.81

[[record]]
compound = "CCN1C(C(=O)NC23CCC(C(=O)O)(CC2)CC3)C(c2cccc(Cl)c2F)C2(C(=O)Nc3cc(Cl)ccc32)C12CCCCC2 (configuration not stated) + CNC(C)C(=O)NC1CN(S(=O)(=O)c2cccc(S(=O)(=O)N3CCC4CCC(C(=O)NC(c5ccccc5)c5ccccc5)N4C(=O)C(NC(=O)C(C)NC)C3)c2)CCC2CCC(C(=O)NC(c3ccccc3)c3ccccc3)N2C1=O"
quantitative_result = 6.76

[[record]]
compound = "C=CC(=O)N1CCN(c2nc(=O)n(-c3c(C)ccnc3C(C)C)c3nc(-c4c(O)cccc4F)c(F)cc23)C(C)C1 (configuration not stated) + CNC(C)C(=O)NC1CN(S(=O)(=O)c2cccc(S(=O)(=O)N3CCC4CCC(C(=O)NC(c5ccccc5)c5ccccc5)N4C(=O)C(NC(=O)C(C)NC)C3)c2)CCC2CCC(C(=O)NC(c3ccccc3)c3ccccc3)N2C1=O"
quantitative_result = 5.37


Value sought: pIC50, system 616215-338-R-J1-PDC complex spheroid growth, % test/control, item O=C(c1ccc(F)c(F)c1Nc1ccc(I)cc1F)N1CC(O)([C@@H]2CCCCN2)C1 + CNC(C)C(=O)NC1CN(S(=O)(=O)c2cccc(S(=O)(=O)N3CCC4CCC(C(=O)NC(c5ccccc5)c5ccccc5)N4C(=O)C(NC(=O)C(C)NC)C3)c2)CCC2CCC(C(=O)NC(c3ccccc3)c3ccccc3)N2C1=O . Result: 7.33
